Below is a list of entries, each paired with its recorded Ki value.
# studyTarget: GPER (Homo sapiens, UniProt Q99527)
# Sequence (Q99527 whole entry, species assumed): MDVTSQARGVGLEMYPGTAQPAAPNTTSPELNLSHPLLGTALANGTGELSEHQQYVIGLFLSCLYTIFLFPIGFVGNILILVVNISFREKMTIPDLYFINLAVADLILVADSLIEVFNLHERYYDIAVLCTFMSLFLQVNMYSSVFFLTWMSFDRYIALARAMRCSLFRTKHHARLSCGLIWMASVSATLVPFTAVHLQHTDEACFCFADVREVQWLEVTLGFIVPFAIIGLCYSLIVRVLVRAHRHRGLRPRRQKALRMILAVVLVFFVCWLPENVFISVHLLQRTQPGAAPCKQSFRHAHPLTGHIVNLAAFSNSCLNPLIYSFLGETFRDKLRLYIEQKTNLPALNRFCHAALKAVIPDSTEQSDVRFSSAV
# assayProcedure: [3H] 2-ME competition binding in GPER-transduced Sf9 cell particulate fractions

>  <compound>
COc1cc2c(cc1O)CC[C@@H]1[C@@H]2CC[C@]2(C)[C@@H](O)CC[C@@H]12 [2‐ME, 2‐Methoxyestradiol]

>  <readingUnit>
nM

>  <Ki>
1.5

$$$$
>  <compound>
C[C@]12CCC(=O)C=C1CC[C@@H]1[C@@H]2[C@@H](O)C[C@]2(C=O)[C@@H](C(=O)CO)CC[C@@H]12 [Aldosterone]

>  <readingUnit>
nM

>  <Ki>
24

$$$$
